The reported measurements were obtained from ChEMBL document CHEMBL4043068.

# study target: UniProt P08908
# Sequence (P08908 whole entry): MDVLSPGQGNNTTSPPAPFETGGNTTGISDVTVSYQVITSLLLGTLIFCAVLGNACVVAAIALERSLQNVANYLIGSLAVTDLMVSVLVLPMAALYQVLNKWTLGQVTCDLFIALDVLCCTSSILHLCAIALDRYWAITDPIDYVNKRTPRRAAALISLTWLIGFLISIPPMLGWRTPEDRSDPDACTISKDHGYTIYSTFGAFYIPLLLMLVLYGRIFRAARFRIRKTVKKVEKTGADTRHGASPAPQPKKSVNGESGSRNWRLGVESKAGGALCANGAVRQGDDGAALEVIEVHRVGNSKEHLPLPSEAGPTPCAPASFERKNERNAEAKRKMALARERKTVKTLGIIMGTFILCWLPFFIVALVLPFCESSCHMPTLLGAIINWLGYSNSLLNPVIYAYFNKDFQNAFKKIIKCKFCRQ
# test: Agonist activity at human 5HT1A receptor expressed in HEK293 cells incubated for 1 hr by Fluo-8 dye based calcium assay
# Format: functional, cell-based
The source made the active and inactive calls. The calls are words filed in the database; no cut-off is given here.

>  <smiles repr>
C=CC(C)(C)c1[nH]c2ccccc2c1[C@H]1[C@H](c2c(C(C)(C)C=C)[nH]c3ccccc23)[C@]2(NC(=O)[C@H](C)NC2=O)[C@@]12NC(=O)[C@H](C)NC2=O

>  <Activity>
inactive

$$$$
>  <smiles repr>
C=CC(C)(C)c1[nH]c2ccccc2c1[C@H]1[C@H](c2c(C(C)(C)C=C)[nH]c3ccccc23)[C@]2(NC(=O)[C@@H](C)NC2=O)[C@@]12NC(=O)[C@@H](C)NC2=O

>  <Activity>
inactive

$$$$
>  <smiles repr>
C=CC(C)(C)c1[nH]c2ccccc2c1[C@@H]1[C@@H](c2c(C(C)(C)C=C)[nH]c3ccccc23)[C@@]2(NC(=O)[C@H](C)NC2=O)[C@]12NC(=O)[C@H](C)NC2=O

>  <Activity>
inactive

$$$$
>  <smiles repr>
C=CC(C)(C)c1[nH]c2ccccc2c1[C@@H]1[C@@H](c2c(C(C)(C)C=C)[nH]c3ccccc23)[C@@]2(NC(=O)[C@@H](C)NC2=O)[C@]12NC(=O)[C@@H](C)NC2=O

>  <Activity>
inactive

$$$$

* * *

# study target: Melatonin receptor type 1B (Homo sapiens) (UniProt P49286)
# Sequence (P49286 whole entry): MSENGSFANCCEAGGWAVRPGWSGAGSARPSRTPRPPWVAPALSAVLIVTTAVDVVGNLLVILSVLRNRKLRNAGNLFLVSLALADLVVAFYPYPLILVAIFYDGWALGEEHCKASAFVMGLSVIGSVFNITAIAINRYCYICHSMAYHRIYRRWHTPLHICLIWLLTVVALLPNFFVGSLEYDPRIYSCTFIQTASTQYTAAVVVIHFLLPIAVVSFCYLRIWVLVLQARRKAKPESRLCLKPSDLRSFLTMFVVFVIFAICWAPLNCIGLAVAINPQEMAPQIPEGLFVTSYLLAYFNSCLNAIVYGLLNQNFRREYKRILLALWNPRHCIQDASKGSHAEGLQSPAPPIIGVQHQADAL
# test: Agonist activity at human MT2 receptor expressed in HEK293 cells incubated for 1 hr by Fluo-8 dye based calcium assay
# Assay type: functional, cell-based
Activity calls are given as the source filed them. The rule behind the calls is not given here.
measurement kind: Activity

>  <smiles repr>
C=CC(C)(C)c1[nH]c2ccccc2c1[C@H]1[C@H](c2c(C(C)(C)C=C)[nH]c3ccccc23)[C@]2(NC(=O)[C@H](C)NC2=O)[C@@]12NC(=O)[C@H](C)NC2=O

>  <measurement kind>
Activity

>  <observed value>
Active

$$$$
>  <smiles repr>
C=CC(C)(C)c1[nH]c2ccccc2c1[C@@H]1[C@@H](c2c(C(C)(C)C=C)[nH]c3ccccc23)[C@@]2(NC(=O)[C@@H](C)NC2=O)[C@]12NC(=O)[C@@H](C)NC2=O

>  <measurement kind>
Activity

>  <observed value>
Active

$$$$
>  <smiles repr>
C=CC(C)(C)c1[nH]c2ccccc2c1[C@@H]1[C@@H](c2c(C(C)(C)C=C)[nH]c3ccccc23)[C@@]2(NC(=O)[C@H](C)NC2=O)[C@]12NC(=O)[C@H](C)NC2=O

>  <measurement kind>
Activity

>  <observed value>
Active

$$$$
>  <smiles repr>
C=CC(C)(C)c1[nH]c2ccccc2c1[C@H]1[C@H](c2c(C(C)(C)C=C)[nH]c3ccccc23)[C@]2(NC(=O)[C@@H](C)NC2=O)[C@@]12NC(=O)[C@@H](C)NC2=O

>  <measurement kind>
Activity

>  <observed value>
52.4%

$$$$

* * *

# study target: 5-hydroxytryptamine receptor 2C (Homo sapiens) (UniProt P28335)
# Sequence (P28335 whole entry): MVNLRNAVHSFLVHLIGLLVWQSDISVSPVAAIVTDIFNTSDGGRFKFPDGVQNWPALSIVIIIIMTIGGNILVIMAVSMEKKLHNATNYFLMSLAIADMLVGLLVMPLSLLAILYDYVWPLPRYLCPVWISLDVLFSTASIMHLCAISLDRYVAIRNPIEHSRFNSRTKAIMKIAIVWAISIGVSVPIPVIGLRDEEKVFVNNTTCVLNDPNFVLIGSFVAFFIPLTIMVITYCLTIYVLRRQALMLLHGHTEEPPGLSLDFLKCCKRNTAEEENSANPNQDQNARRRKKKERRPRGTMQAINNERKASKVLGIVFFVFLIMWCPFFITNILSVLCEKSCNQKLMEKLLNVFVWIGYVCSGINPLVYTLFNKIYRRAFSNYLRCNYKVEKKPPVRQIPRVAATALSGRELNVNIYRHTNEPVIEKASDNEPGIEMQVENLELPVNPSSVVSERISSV
# test: Agonist activity at human 5HT2C receptor expressed in HEK293 cells incubated for 1 hr by Fluo-8 dye based calcium assay
# Assay type: functional, cell-based
Activity calls are given as the source filed them. No cut-off for these calls is given here.

>  <smiles repr>
C=CC(C)(C)c1[nH]c2ccccc2c1[C@H]1[C@H](c2c(C(C)(C)C=C)[nH]c3ccccc23)[C@]2(NC(=O)[C@@H](C)NC2=O)[C@@]12NC(=O)[C@@H](C)NC2=O

>  <Activity>
inactive

$$$$
>  <smiles repr>
C=CC(C)(C)c1[nH]c2ccccc2c1[C@@H]1[C@@H](c2c(C(C)(C)C=C)[nH]c3ccccc23)[C@@]2(NC(=O)[C@@H](C)NC2=O)[C@]12NC(=O)[C@@H](C)NC2=O

>  <Activity>
inactive

$$$$
>  <smiles repr>
C=CC(C)(C)c1[nH]c2ccccc2c1[C@@H]1[C@@H](c2c(C(C)(C)C=C)[nH]c3ccccc23)[C@@]2(NC(=O)[C@H](C)NC2=O)[C@]12NC(=O)[C@H](C)NC2=O

>  <Activity>
inactive

$$$$
>  <smiles repr>
C=CC(C)(C)c1[nH]c2ccccc2c1[C@H]1[C@H](c2c(C(C)(C)C=C)[nH]c3ccccc23)[C@]2(NC(=O)[C@H](C)NC2=O)[C@@]12NC(=O)[C@H](C)NC2=O

>  <Activity>
inactive

$$$$
